List of pIC50 values.
target: USP25 (USP25-His6, Boston Biochem E-546) (Homo sapiens, UniProt Q9UHP3); construct: His6; purchased Boston Biochem E-546; test: Ubiquitin-Rhodamine 110 Assay for USP25 Activity, Example A-2; assay type: biochemical; conditions: Ub-Rh110 assay, Example A-2; read-out: USP25 A-2 IC50 range
Sequence (Q9UHP3 whole entry): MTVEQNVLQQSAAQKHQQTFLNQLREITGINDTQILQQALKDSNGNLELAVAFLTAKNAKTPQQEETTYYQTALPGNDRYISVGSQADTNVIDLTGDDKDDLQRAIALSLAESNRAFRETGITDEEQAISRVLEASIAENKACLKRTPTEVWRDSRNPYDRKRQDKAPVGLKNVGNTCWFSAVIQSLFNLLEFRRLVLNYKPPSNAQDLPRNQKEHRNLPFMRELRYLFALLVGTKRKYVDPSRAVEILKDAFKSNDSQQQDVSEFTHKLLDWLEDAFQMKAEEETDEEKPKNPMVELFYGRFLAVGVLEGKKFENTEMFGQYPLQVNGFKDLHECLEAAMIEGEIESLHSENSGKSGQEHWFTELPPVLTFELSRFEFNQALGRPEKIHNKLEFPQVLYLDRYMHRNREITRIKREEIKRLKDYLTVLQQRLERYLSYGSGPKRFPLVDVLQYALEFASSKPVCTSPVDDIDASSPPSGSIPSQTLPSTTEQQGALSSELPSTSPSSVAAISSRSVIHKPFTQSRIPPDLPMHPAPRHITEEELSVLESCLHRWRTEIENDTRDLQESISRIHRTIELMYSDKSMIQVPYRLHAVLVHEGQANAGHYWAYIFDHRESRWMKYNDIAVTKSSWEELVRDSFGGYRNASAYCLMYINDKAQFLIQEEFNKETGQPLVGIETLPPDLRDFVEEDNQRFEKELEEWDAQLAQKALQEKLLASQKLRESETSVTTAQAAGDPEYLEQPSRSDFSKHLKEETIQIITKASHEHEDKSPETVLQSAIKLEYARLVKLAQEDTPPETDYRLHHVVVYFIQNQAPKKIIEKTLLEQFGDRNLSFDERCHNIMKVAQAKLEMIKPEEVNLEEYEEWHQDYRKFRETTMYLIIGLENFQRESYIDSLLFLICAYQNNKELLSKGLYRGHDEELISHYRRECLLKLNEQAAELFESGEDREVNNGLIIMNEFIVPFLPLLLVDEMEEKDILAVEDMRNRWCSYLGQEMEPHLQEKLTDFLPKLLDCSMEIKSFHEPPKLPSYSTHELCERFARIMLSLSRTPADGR
pIC50: −log10 of the molar value.

Known pIC50 results, listed for orientation:
Q: Tell me pIC50 reported for [2H]C([2H])([2H])O[C@H]1CN(c2ccc3c(c2)OC[C@H](NC(=O)c2sc4nc(C)ccc4c2N)C3)C[C@@H]1N [Example 2-38]
A: 5.70 to 6.70

Q: In one line, give reported pIC50 of the entry Cc1ccc2c(N)c(C(=O)N[C@H]3COc4cc(N5CCN[C@H](C)[C@@H]5C)ccc4C3)sc2n1 (single isomer, unassigned) [Example 1-9] .
A: 5.70 to 6.70

Q: Retrieve pIC50 measured for Cc1nc2sc(C(=O)N[C@@H]3COc4cc(N5CCNCC5)ccc4C3)c(N)c2s1 [Example 1-26] and print it.
A: < 5.70

Q: Please give the documented pIC50 of Cc1cnc2c(N)c(C(=O)N[C@@H]3CCc4c(ccc(N5CCNCC5)c4C)C3)sc2n1 (single isomer, unassigned) [Example 2-37]
A: 5.70 to 6.70

Q: Please give measured pIC50 of the following entry: Cc1ccc2c(N)c(C(=O)N[C@H]3COc4cc(N5CCN[C@H](C)C5)ccc4C3)sc2n1 [Example 2-9]
A: 5.70 to 6.70

Q: Item Cc1ccc2c(N)c(C(=O)N[C@H]3COc4cc(N5CC6CCCC(C5)N6)ccc4C3)sc2n1 (single isomer, unassigned) [Example 1-5] : provide pIC50
A: 7.30 to 9.00

Continuing:
Q: Provide only the value of recorded pIC50 for Cc1ccc2c(N)c(C(=O)N[C@H]3COc4cc(N5CC6CC(C5)N6)cc(F)c4C3)sc2n1 (single isomer, unassigned) [Example 1-42]
A: < 5.70

Q: Give a short answer stating reported pIC50 for Cc1ccc2c(N)c(C(=O)N[C@@H]3COc4cc(N5CC6CC(C5)N6)ccc4C3)sc2n1 [Example 2-3] .
A: < 5.70

Q: Quick one: give measured pIC50 for CCn1ccc2cc(C(=O)N[C@@H]3COc4cc(N5CC6CCC(C5)N6)ccc4C3)cnc21 (single isomer, unassigned) [Example 1-27]
A: < 5.70

Q: Supply recorded pIC50 for Cc1ccc2c(N)c(C(=O)N[C@H]3COc4cc(N5CCN[C@H](C)[C@H]5C)ccc4C3)sc2n1 (single isomer, unassigned) [Example 1-11] here.
A: 6.70 to 7.30

Q: Please report pIC50 for the following molecule: Cc1ccc2c(N)c(C(=O)N[C@H]3COc4cc(N5CC6CNCC(C5)C6(F)F)c(C#N)cc4C3)sc2n1 [Example 2-33]
A: 7.30 to 9.00

Q: Give recorded pIC50. Cc1nc2sc(C(=O)N[C@@H]3COc4cc(N5CCNCC5)cc(F)c4C3)c(N)c2s1 (single isomer, unassigned) [Example 1-38]
A: 5.70 to 6.70

Q: Identify measured pIC50 corresponding to Cc1cnc2c(N)c(C(=O)N[C@H]3COc4cc(N5CC6CNCC(C5)O6)ccc4C3)sc2n1 [Example 2-13]
A: 5.70 to 6.70

Q: Return pIC50 for the following molecule: Cc1nc2sc(C(=O)N[C@@H]3COc4cc(N5CC6CCC(C5)N6)ccc4C3)c(N)c2s1 [Example 1-24]
A: < 5.70
